Test system: Actinobacillus pleuropneumoniae CVCC262
TEST DESCRIPTION: in vitro susceptibility, MIC by mini broth dilution
Assay type: cell-based
ASSAY CONDITIONS: strain CVCC262
MEASURED ATTRIBUTE: MIC values, Actinobacillus pleuropneumoniae CVCC262 (ug/mi)
Numeric only. Scale: ug/mi

| MOLECULE | UOM | QUANTITATIVE RESULT |
| --- | --- | --- |
| CCCN1C[C@H](C)[C@@H](O)[C@](C)(O)[C@@H](CC)OC(=O)[C@H](C)[C@@H](O[C@H]2C[C@@](C)(OC)[C@](O)(CNCc3cccc(OC)c3)[C@H](C)O2)[C@H](C)[C@@H](O[C@@H]2O[C@H](C)C[C@H](N(C)C)[C@H]2O)[C@](C)(O)C[C@H]1C [syzx-127] | ug/mi | 1 |
| CCCN1CC(C)C(O)C(C)(O)C(CC)OC(=O)C(C)C(OC2CC(C)(OC)C(O)(CNNc3ccccc3)C(C)O2)C(C)C(OC2OC(C)CC(N(C)C)C2O)C(C)(O)CC1C (stereo not shown) [syzx-173] | ug/mi | 1 |
| CCCN1C[C@H](C)[C@@H](O)[C@](C)(O)[C@@H](CC)OC(=O)[C@H](C)[C@@H](O[C@H]2C[C@@](C)(OC)[C@](O)(CNc3ccccc3)[C@H](C)O2)[C@H](C)[C@@H](O[C@@H]2O[C@H](C)C[C@H](N(C)C)[C@H]2O)[C@](C)(O)C[C@H]1C [syzx-104] | ug/mi | 0.25 |
| CCCN1C[C@H](C)[C@@H](O)[C@](C)(O)[C@@H](CC)OC(=O)[C@H](C)[C@@H](O[C@H]2C[C@@](C)(OC)[C@](O)(CNc3ccc(Cl)cc3Cl)[C@H](C)O2)[C@H](C)[C@@H](O[C@@H]2O[C@H](C)C[C@H](N(C)C)[C@H]2O)[C@](C)(O)C[C@H]1C [syzx-231] | ug/mi | 0.25 |

Task: What is its MIC values, Actinobacillus pleuropneumoniae CVCC262 for Actinobacillus pleuropneumoniae CVCC262? Entry: CC[C@H]1OC(=O)[C@H](C)[C@@H](O[C@H]2C[C@@](C)(OC)[C@](O)(CNc3ccc(OC)cc3)[C@H](C)O2)[C@H](C)[C@@H](O[C@@H]2O[C@H](C)C[C@H](N(C)C)[C@H]2O)[C@](C)(O)C[C@@H](C)NC[C@H](C)[C@@H](O)[C@]1(C)O [syzx-83]
Result: 2

Task: What is its MIC values, Actinobacillus pleuropneumoniae CVCC262 for Actinobacillus pleuropneumoniae CVCC262? Entry: CC[C@H]1OC(=O)[C@H](C)[C@@H](O[C@H]2C[C@@](C)(OC)[C@](O)(CNc3ccccc3F)[C@H](C)O2)[C@H](C)[C@@H](O[C@@H]2O[C@H](C)C[C@H](N(C)C)[C@H]2O)[C@](C)(O)C[C@@H](C)NC[C@H](C)[C@@H](O)[C@]1(C)O [syzx-68]
Result: 8

====

Tested on: Haemophilus parasuis
TEST DESCRIPTION: in vitro susceptibility, MIC by mini broth dilution
Format: cell-based
MEASURED ATTRIBUTE: MIC values, Haemophilus parasuis (ug/mi)
Numeric only. Scale: ug/mi

Some entries whose results are on file:
| COMPOUND | QUANTITATIVE RESULT |
| --- | --- |
| CCCN1C[C@H](C)[C@@H](O)[C@](C)(O)[C@@H](CC)OC(=O)[C@H](C)[C@@H](O[C@H]2C[C@@](C)(OC)[C@](O)(CNC(=O)C(F)(F)F)[C@H](C)O2)[C@H](C)[C@@H](O[C@@H]2O[C@H](C)C[C@H](N(C)C)[C@H]2O)[C@](C)(O)C[C@H]1C [syzx-215] | 0.25 |
| CC[C@H]1OC(=O)[C@H](C)[C@@H](O[C@H]2C[C@@](C)(OC)[C@](O)(CNc3ccnc(Cl)c3)[C@H](C)O2)[C@H](C)[C@@H](O[C@@H]2O[C@H](C)C[C@H](N(C)C)[C@H]2O)[C@](C)(O)C[C@@H](C)NC[C@H](C)[C@@H](O)[C@]1(C)O | 0.5 |
| CCCNC[C@]1(O)[C@H](C)O[C@@H](O[C@H]2[C@H](C)[C@@H](O[C@@H]3O[C@H](C)C[C@H](N(C)C)[C@H]3O)[C@](C)(O)C[C@@H](C)N(CCC)C[C@H](C)[C@@H](O)[C@](C)(O)[C@@H](CC)OC(=O)[C@@H]2C)C[C@@]1(C)OC | 0.125 |
| CCC1OC(=O)C(C)C(OC2CC(C)(OC)C(O)(CNc3ccccc3)C(C)O2)C(C)C(OC2OC(C)CC(N(C)C)C2O)C(C)(O)CC(C)NCC(C)C(O)C1(C)O (centres unmarked) | 0.5 |

Shifting focus to the compound that follows.
Task: For `CCCN1C[C@H](C)[C@@H](O)[C@](C)(O)[C@@H](CC)OC(=O)[C@H](C)[C@@H](O[C@H]2C[C@@](C)(OC)[C@](O)(CNc3cccc(Cl)c3)[C@H](C)O2)[C@H](C)[C@@H](O[C@@H]2O[C@H](C)C[C@H](N(C)C)[C@H]2O)[C@](C)(O)C[C@H]1C` , what is its reported MIC values, Haemophilus parasuis?
Result: 0.25

Entry source: patent US9765105B2
